# measuredTarget: LCK (Homo sapiens, UniProt P06239)
# Sequence (P06239 whole entry): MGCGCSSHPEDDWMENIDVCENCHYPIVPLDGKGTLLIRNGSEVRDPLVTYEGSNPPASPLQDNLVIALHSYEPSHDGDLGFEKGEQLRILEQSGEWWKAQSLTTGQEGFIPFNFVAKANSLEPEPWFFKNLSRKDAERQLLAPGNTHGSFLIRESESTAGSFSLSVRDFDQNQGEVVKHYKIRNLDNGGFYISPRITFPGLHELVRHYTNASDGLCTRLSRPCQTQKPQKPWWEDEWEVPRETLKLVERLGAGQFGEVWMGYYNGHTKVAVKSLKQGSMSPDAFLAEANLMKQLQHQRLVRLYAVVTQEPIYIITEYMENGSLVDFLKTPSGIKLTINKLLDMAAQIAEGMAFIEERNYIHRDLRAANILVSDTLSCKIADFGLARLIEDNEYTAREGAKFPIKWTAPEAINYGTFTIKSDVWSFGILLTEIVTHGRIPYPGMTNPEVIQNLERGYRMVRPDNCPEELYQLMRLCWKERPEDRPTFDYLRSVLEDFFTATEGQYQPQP
# procedureText: Inhibition of a panel of kinases, in vitro HotSpot kinase assay: LCK
# Assay type: biochemical
# assayConditions: D-compounds panel data; 1 μM ATP; read-out: IC50 LCK
pIC50: −log10 of the molar value.
readoutName: pIC50

Here are 2 molecules together with their reported answers.
* C[C@@H]1[C@H](NC(=O)c2cc(C3CC3)n[nH]2)CCCN1c1cnc(C(N)=O)c(Nc2cnn(C)c2)n1 [Example D-252] | 7.00 to 8.00
* C[C@@H]1[C@H](NC(=O)c2ccc3nn(C)cc3c2)CCCN1c1cnc(C(N)=O)c(Nc2cnn(C)c2)n1 [Example D-267] | 7.00 to 8.00

query: What value of measured pIC50 is listed for C[C@@H]1[C@H](NC(=O)c2ccc3c(cnn3C)c2)CCCN1c1cnc(C(N)=O)c(Nc2cnn(C)c2)n1 [Example D-254] ?
result: 6.00 to 7.00

query: What value of pIC50 has been reported for the following molecule? CN(C)c1ccc2c(=O)n([C@@H]3CCCN(c4cnc(C(N)=O)c(Nc5cnn(C)c5)n4)C3)ccc2c1 [Example D-155]
result: 6.00 to 7.00

* * *

This section presents compounds with their documented IC50 values.
# measuredTarget: EGFR (Homo sapiens, UniProt P00533)
# Sequence (P00533 25-1210): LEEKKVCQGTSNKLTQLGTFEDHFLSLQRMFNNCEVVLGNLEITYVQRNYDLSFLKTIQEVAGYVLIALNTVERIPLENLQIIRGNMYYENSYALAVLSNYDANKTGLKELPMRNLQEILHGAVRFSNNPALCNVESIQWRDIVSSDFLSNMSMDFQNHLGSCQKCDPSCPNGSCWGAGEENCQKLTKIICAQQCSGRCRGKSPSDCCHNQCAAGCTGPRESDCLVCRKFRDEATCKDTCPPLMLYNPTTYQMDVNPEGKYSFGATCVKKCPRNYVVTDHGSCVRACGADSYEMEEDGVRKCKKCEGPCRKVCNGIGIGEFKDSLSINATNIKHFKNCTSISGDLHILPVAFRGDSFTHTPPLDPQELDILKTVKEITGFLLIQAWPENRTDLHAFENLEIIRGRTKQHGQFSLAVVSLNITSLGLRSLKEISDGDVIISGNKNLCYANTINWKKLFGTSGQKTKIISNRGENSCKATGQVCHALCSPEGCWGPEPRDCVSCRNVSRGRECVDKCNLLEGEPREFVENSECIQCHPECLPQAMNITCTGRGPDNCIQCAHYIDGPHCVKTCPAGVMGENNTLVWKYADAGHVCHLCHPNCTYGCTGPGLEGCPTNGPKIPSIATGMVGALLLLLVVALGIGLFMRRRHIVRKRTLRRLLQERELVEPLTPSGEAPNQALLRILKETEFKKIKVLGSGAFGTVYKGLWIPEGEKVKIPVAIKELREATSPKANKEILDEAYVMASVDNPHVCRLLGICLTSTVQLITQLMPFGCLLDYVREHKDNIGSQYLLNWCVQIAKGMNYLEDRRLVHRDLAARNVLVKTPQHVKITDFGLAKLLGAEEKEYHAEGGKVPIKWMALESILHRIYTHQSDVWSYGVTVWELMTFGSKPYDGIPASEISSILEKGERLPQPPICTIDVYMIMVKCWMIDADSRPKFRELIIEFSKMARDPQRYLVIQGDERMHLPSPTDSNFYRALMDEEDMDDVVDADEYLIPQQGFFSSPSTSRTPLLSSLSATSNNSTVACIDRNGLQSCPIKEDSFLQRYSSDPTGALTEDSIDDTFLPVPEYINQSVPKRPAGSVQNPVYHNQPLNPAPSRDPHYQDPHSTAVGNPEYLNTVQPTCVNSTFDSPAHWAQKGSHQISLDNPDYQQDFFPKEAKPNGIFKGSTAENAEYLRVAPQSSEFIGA
# procedureText: Inhibition of a panel of kinases, in vitro HotSpot kinase assay: EGFR
# Type: biochemical
# assayConditions: D-compounds panel data; 1 μM ATP

* CN(C)C(=O)N[C@@H]1CCCN(c2cnc(C(N)=O)c(Nc3ccc(C4(C)CCN(C5CCCC5)CC4)cc3)n2)[C@@H]1CO | 100 to 1000 nM
* C[C@@H]1[C@H](NC(=O)c2ccc(C3(O)CC3)cc2)CCCN1c1cnc(C(N)=O)c(Nc2cnn(C)c2)n1 | 100 to 1000 nM
* Cn1cc(Nc2nc(N3C4CCC(NC(=O)c5ccc(C6CC6)cc5)C3CC4)cnc2C(N)=O)cn1 (single isomer, unassigned) [Example D-200] | 1000 to 10000 nM
* C[C@@H]1[C@H](NC(=O)c2ccc(C3CC3)cc2)CCCN1c1cnc(C(N)=O)c(Nc2cc(C3CCN(C4CCCC4)CC3)ns2)n1 | 1000 to 10000 nM
* Cc1cc(Nc2nc(N3C[C@H](NC(=O)N(C)C)CC[C@@H]3C)cnc2C(N)=O)sn1 | 100 to 1000 nM

query: Endpoint output: IC50 of C[C@@H]1[C@H](NC(=O)c2ccc(C3CC3)cc2)CCCN1c1cnc(C(N)=O)c(Nc2ccc(OC3CCN(C)CC3)cc2)n1 . Value?
result: 100 to 1000 nM

* * *

Measured pIC50 accompanies every entry in the list below.
# measuredTarget: SRC (Homo sapiens)
# Sequence (P12931 whole entry): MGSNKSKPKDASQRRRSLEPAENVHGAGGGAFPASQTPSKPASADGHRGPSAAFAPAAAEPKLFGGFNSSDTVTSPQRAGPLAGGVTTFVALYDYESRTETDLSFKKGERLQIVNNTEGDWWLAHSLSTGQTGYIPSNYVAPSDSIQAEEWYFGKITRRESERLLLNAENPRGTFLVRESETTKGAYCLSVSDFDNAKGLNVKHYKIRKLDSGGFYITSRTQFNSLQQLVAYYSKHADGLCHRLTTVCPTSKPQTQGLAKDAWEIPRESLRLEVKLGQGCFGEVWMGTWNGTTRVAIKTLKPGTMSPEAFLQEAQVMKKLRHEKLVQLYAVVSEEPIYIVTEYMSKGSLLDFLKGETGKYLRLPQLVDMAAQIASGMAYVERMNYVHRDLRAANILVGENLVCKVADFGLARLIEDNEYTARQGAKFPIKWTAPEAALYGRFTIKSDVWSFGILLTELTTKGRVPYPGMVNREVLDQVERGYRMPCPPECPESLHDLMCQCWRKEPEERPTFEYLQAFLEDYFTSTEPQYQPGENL
# procedureText: Inhibition of a panel of kinases, in vitro HotSpot kinase assay: SRC
# Assay type: biochemical
# assayConditions: E compounds, Table 17
pIC50: −log10 of the molar value.

* C=CC(=O)N1CC[C@@H](N(C)c2nnc(C(N)=O)c(Nc3ccc(C(C)C)cc3)n2)C1 [Example E-26] | 7.00 to 8.00
* Cc1nc(-c2ccc(C(=O)N[C@@H]3CCCN(c4cnc(C(N)=O)c(Nc5cnn(C)c5)n4)[C@@H]3C)cc2)cs1 [Example E-155] | 7.00 to 8.00

Shifting focus to the molecule that follows.
query: What pIC50 value was documented for this molecule, Cc1cc(C(=O)N[C@@H]2CCCN(c3cnc(C(N)=O)c(Nc4cnn(C)c4)n3)[C@@H]2C)ccc1C(C)(C)O [Example E-152] ?
result: 7.00 to 8.00
